Test: Human study SAD/MAD: safety, tolerability and plasma pharmacokinetics
Format: in vivo
Settings: human, plasma, oral; SAD, 5-750 mg doses
readout.kind: Cmax

Task: Look up Cmax for this compound: Cn1nc(C(=O)N(Cc2ccccc2)Cc2ccc(C(=O)O)cc2)c2c1-c1cc(Cl)ccc1OC2 [Compound A]
Result: 177 to 12700 ng/mL

###

Assay: Human study SAD/MAD: safety, tolerability and plasma pharmacokinetics
Assay type: in vivo
Conditions: human, plasma, oral; SAD, 5-750 mg doses; read-out: mean t1/2
readout.kind: half-life

Task: Look up half-life for this compound: Cn1nc(C(=O)N(Cc2ccccc2)Cc2ccc(C(=O)O)cc2)c2c1-c1cc(Cl)ccc1OC2
Result: 11.7 to 23.5 h

###

Assay: Human study SAD/MAD: safety, tolerability and plasma pharmacokinetics
Assay type: in vivo
Conditions: human, plasma, oral; SAD, 5-750 mg doses; read-out: median plasma Tmax
readout.kind: Tmax

Task: Look up Tmax for this compound: Cn1nc(C(=O)N(Cc2ccccc2)Cc2ccc(C(=O)O)cc2)c2c1-c1cc(Cl)ccc1OC2
Result: 1.75 to 3 h
